Target: AmRDL receptor (Apis mellifera)
Sequence (A0A8U0Y4W2 19-476): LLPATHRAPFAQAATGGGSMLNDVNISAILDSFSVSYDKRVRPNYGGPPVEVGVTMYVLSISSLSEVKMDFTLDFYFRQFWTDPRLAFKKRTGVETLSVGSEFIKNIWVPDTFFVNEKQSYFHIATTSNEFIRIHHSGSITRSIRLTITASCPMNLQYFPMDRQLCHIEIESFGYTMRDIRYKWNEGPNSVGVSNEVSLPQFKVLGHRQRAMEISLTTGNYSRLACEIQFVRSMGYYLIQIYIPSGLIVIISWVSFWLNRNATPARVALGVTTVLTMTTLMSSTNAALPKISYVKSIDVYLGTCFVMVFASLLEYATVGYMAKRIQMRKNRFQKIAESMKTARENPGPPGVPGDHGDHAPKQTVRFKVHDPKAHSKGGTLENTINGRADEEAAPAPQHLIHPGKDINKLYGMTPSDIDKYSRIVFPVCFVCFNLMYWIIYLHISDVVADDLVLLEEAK
Assay: two-electrode voltage clamp, Xenopus oocytes
READOUT_NAME: EC50 (µM)
Use µM as the unit, but write only the number.

Which EC50 is listed for NCCCC(=O)O [GABA] ?
10

Cited source: paper doi:10.1101/2025.03.24.644576v1
